Ref: patent US20200115416A1

Catalogue of binders with associated antagonist pA2 (Schild, agonist NDP-MSH)
# tgt: mouse melanocortin-4 receptor (mouse, UniProt P56450 1-332)
# Sequence (P56450 whole entry): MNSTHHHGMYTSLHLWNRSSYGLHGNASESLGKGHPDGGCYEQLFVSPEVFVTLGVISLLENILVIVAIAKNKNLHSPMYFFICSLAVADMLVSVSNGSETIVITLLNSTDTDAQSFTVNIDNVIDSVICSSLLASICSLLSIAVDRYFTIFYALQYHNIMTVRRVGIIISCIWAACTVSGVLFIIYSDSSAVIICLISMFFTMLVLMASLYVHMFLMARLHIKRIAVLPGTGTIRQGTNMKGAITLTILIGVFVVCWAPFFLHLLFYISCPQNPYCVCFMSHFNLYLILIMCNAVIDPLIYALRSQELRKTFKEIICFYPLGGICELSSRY
# method_notes: cell-based or functional assay
Square brackets hold non-standard residues; d marks the D form.
test_readout: antagonist pA2 (Schild, agonist NDP-MSH)

- binder: "cyclo(PRFFVAF[dP]) [c[Pro-Arg-Phe-Phe-Val-Ala-Phe-DPro]]"
  reported_value: 5.9
- binder: "cyclo(PRFFEAF[dP]) [c[Pro-Arg-Phe-Phe-Glu-Ala-Phe-DPro]]"
  reported_value: 7
- binder: "cyclo(PRFFNEF[dP]) (SMILES N=C(N)NCCC[C@@H]1NC(=O)[C@@H]2CCCN2C(=O)[C@H]2CCCN2C(=O)[C@H](Cc2ccccc2)NC(=O)[C@H](CCC(=O)O)NC(=O)[C@H](CC(N)=O)NC(=O)[C@H](Cc2ccccc2)NC(=O)[C@H](Cc2ccccc2)NC1=O) [c[Pro-Arg-Phe-Phe-Asn-Glu-Phe-DPro]]"
  reported_value: "< 5.5"
- binder: "cyclo(PRFFNAA[dP]) (SMILES C[C@@H]1NC(=O)[C@H](CC(N)=O)NC(=O)[C@H](Cc2ccccc2)NC(=O)[C@H](Cc2ccccc2)NC(=O)[C@H](CCCNC(=N)N)NC(=O)[C@@H]2CCCN2C(=O)[C@H]2CCCN2C(=O)[C@H](C)NC1=O) [c[Pro-Arg-Phe-Phe-Asn-Ala-Ala-DPro]]"
  reported_value: 8.16
